Species on record: Rattus norvegicus
ASSAY_METHOD_TEXT: Selectivity index, ratio of IC50 for ALR1 in Wistar rat kidney to IC50 for ALR2 in Wistar rat eye lens
Everything with Ratio IC50 lower than 800 is not satisfied; everything else, including exactly 800, is satisfied.

{"columns": ["MOLECULE", "CLASS_NAME"],
 "data": [
  ["CC(=O)N1CCc2c(c3ccccc3n2CC(=O)O)C1", "satisfied"],
  ["Cc1c(C=O)c2ccccc2n1CC(=O)O", "not satisfied"],
  ["CCOC(=O)N1CCc2c(c3cc(C(=O)O)ccc3n2CC(=O)O)C1", "not satisfied"],
  ["O=C(O)Cn1c2c(c3ccccc31)CN(C(=O)C1CC1)CC2", "not satisfied"],
  ["CC(=O)c1c(C)n(CC(=O)O)c2ccccc12", "not satisfied"]
]}
